target: RAF kinases (Homo sapiens, UniProt P15056, V600E); experiment: biochemical
Sequence (P15056 whole entry V600E): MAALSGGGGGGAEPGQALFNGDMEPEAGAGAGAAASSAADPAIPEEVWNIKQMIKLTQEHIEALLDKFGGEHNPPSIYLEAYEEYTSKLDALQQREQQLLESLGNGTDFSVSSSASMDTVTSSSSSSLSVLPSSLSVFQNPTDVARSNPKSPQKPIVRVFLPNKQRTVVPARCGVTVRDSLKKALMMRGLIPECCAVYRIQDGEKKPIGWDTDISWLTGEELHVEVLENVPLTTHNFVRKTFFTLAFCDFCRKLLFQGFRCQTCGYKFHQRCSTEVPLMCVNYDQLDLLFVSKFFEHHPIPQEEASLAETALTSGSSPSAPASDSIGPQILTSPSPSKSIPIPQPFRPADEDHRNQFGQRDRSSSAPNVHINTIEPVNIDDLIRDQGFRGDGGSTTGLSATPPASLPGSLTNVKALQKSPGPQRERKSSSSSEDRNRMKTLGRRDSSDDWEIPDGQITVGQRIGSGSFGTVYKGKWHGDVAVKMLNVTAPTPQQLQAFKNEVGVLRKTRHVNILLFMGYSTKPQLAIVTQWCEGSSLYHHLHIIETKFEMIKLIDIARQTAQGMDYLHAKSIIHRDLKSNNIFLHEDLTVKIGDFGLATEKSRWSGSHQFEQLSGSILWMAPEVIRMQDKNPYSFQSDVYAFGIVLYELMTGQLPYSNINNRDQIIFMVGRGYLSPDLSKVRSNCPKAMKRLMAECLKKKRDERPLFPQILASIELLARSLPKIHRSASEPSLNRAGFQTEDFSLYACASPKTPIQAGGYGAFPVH
pKd: −log10 of the molar value.
Known pKd of a selection of compounds
Attribute measured: pKd

COc1cc2ncnc(Sc3cccc(NC(=O)Nc4cc(C(C)(C)C)nn4-c4ccc(Cl)cc4)c3)c2cc1OC :: 6.30 to 6.60
COc1cc2ncnc(Oc3cccc(NC(=O)Nc4cc(C(C)(C)C)nn4-c4cccc(C(F)(F)F)c4)c3)c2cc1OC :: 6.30 to 6.60
CCOC(=O)Cn1nc(C(C)(C)C)cc1NC(=O)Nc1cccc(Oc2ncnc3cc(OC)c(OC)cc23)c1 :: 6.30 to 6.60
COc1cc2ncnc(Sc3cccc(NC(=O)Nc4cc(CN5CCOCC5)cc(C(F)(F)F)c4)c3)c2cc1OC :: 6.30 to 6.60
COCCOc1cc2ncnc(Oc3cccc(NC(=O)Nc4cc(C(C)(C)COC)on4)c3)c2cc1OC :: > 6.60
COCCOc1cc2ncnc(Oc3cccc(NC(=O)Nc4cc(-c5ccccc5)on4)c3)c2cc1OC :: < 6.00
COc1cc2ncnc(Oc3cccc(NC(=O)Nc4cc(C(F)(F)F)nn4-c4ccc(C)cc4)c3)c2cc1OC :: 6.00 to 6.30
COc1cc2ncnc(Sc3cccc(NC(=O)Nc4cc(C(C)(C)C)nn4-c4cccc(C(F)(F)F)c4)c3)c2cc1OC :: 6.30 to 6.60
COc1cc2ncnc(Oc3cccc(NC(=O)Nc4cc(-c5ccccc5)on4)c3)c2cc1OC :: 6.30 to 6.60
COc1cc2ncnc(Sc3cccc(NC(=O)Nc4cc(C(C)(C)C)nn4-c4cccc(C)c4)c3)c2cc1OC :: 6.30 to 6.60
CCOC(C)(C)c1cc(NC(=O)Nc2cccc(Oc3ncnc4cc(OCCOC)c(OC)cc34)c2)n(-c2ccccc2)n1 :: 6.30 to 6.60
CCOC(C)(C)c1cc(NC(=O)Nc2cccc(Oc3ncnc4cc(OC)c(OC)cc34)c2)n(-c2ccccc2)n1 :: 6.00 to 6.30
COc1cc2ncnc(Oc3cc(NC(=O)Nc4cc(C(C)(C)C)nn4-c4ccccc4)c(F)cc3F)c2cc1OC :: 6.00 to 6.30
COc1cc2ncnc(Oc3cccc(NC(=O)Nc4cc(C(F)(F)F)ccc4Cl)c3)c2cc1OC :: 6.30 to 6.60
COc1cc2ncnc(Sc3cccc(NC(=O)Nc4cc(C(F)(F)F)nn4-c4cccc(C)c4)c3)c2cc1OC :: 6.30 to 6.60
